Entry source: patent US8354443B2

- System: recombinant AMPK proteins (α1β1γ1, α2β1γ1, α1(1-335), α1(1-394) or α2(1-394))
- ASSAY_COMMENT: Scintillation Proximity Assay (AMPK activation)
- Assay type: biochemical, human
- STATED_CONDITIONS: effective concentration of activator for 50% of maximal enzyme activity; 2 hr at 30° C.; AMPK form not specified
pEC50: −log10 of the molar value.
MEASURED_PARAMETER: pEC50

{"COMPOUND": "CN1CCCC1CCNC(=O)c1cccc(CN2C(=O)[C@]3(C[C@@H]3c3ccc(Cl)cc3)c3ccccc32)c1 (stereo partly shown)", "EXPERIMENTAL_RESULT": 5.97}

a = O=C(O)c1cccc(CN2C(=O)[C@]3(C[C@@H]3c3cccc(Cl)c3)c3ccccc32)c1 (racemic)
b = CS(=O)(=O)N1CCN(C(=O)c2cccc(N3C(=O)[C@]4(C[C@H]4c4ccc(Cl)cc4)c4ccccc43)c2)CC1 (racemic)
c = O=C(c1cccc(N2C(=O)[C@]3(C[C@H]3c3ccc(Cl)cc3)c3ccccc32)c1)N1CCOCC1 (racemic)
Ask: Ascending by pEC50, please. In your reply, arrange the labels in the requested order.
Result: b, a, c
